The measured values listed here are drawn from patent US20230242551A1.

- protocol summary: Liver microsomal metabolic stability test (human)
- Type: in vitro ADME
- experimental context: pH 7.4; human liver microsomes, NADPH, 37° C.; read-out: Intrinsic clearance of human hepatic microsomes in body
metric: microsomal CLint at 1 µM (µL/min/mg)

INSERT INTO results (record_smiles, metric, units_of_measure, measured_value) VALUES
  ('[2H][C@@]1(N)c2cccnc2CC12CCN(c1ncc(Sc3ccnc(N)c3Cl)c3nccn13)CC2', 'microsomal CLint at 1 µM', 'µL/min/mg', 19),
  ('[2H]C1([2H])c2ncccc2[C@@]([2H])(N)C12CCN(c1ncc(Sc3ccnc(N)c3Cl)c3nccn13)CC2', 'microsomal CLint at 1 µM', 'µL/min/mg', 18);

###

- protocol summary: Liver microsomal metabolic stability test (human)
- Assay type: in vitro ADME
- experimental context: pH 7.4; human liver microsomes, NADPH, 37° C., 0-60 min; read-out: Human hepatic microsomal metabolic half-life
metric: half-life at 1 µM (h)

INSERT INTO measurements (record_smiles, metric, units_of_measure, measured_value) VALUES
  ('[2H][C@@]1(N)c2cccnc2CC12CCN(c1ncc(Sc3ccnc(N)c3Cl)c3nccn13)CC2', 'half-life at 1 µM', 'h', 1.2),
  ('[2H]C1([2H])c2ncccc2[C@@]([2H])(N)C12CCN(c1ncc(Sc3ccnc(N)c3Cl)c3nccn13)CC2', 'half-life at 1 µM', 'h', 1.28);

###

- protocol summary: Liver microsomal metabolic stability test (rat)
- Type: in vitro ADME
- experimental context: pH 7.4; rat liver microsomes, NADPH, 37° C., 0-60 min; read-out: Rat hepatic microsomal metabolic half-life
metric: half-life at 1 µM (h)
Return type: number; implicit unit h.

Fill in half-life at 1 µM for record [2H][C@@]1(N)c2cccnc2CC12CCN(c1ncc(Sc3ccnc(N)c3Cl)c3nccn13)CC2
2.03
